Sourced from PubChem BioAssay (NCI)

System: HOP-62 NSCLC
Test: NCI-60 one-dose screen, 48 h
Conditions: 10 µM unless noted
About 83,000 compounds went through this panel and 20% of them were active in at least one assay; those are over-represented in the sample as a whole. The source made the active and inactive calls. The calls were made as follows: active = growth percent below 10; inactive = the rest.
I would appreciate it if you answered using one of these outcomes: active, inactive

# molecule, label.value
rows = [
    ("COc1ccc(Cn2cc(C(=O)N=Nc3c(O)[nH]c4ccc(Br)cc34)nn2)cc1", "inactive"),
    ("Cc1ccc2nc(/C=C/c3ccc(N(C)C)cc3)cc(C)c2c1", "inactive"),
    ("Cc1[nH]c(C(=O)Nc2ccccc2OC2CCNC2)c(Cl)c1Cl (stereo not given)", "inactive"),
]

// query Give the logged outcome of this assay for the following molecule: Cc1oc2ccc(O)c(CN3CCCCCC3)c2c1C(=O)Nc1ccc(C(F)(F)F)cc1
// result inactive

// query Ok, now CCOC(=O)c1c(Nc2nc3ccccc3s2)sc2c1CCC(=O)C2
// result inactive

// query Ok, now O=C1N/C(=N/N=C(c2ccccc2)c2ccccc2)S/C1=C\c1ccc(Br)cc1
// result inactive

// query Also, O=C(Nc1ccccc1)Nc1ccccc1CNc1nc(Nc2ccc(OCCN3CCCC3)cc2)ncc1Cl please.
// result inactive

// query Moving on to the next molecule: O=C(NCCN1CCOCC1)c1cncnc1Nc1ccc2c(ccn2Cc2ccccn2)c1
// result inactive

// query Next record, please: O=C1C2C(c3cccs3)C=C(c3ccc(Cl)cc3)N2C(=S)N1c1ccccc1 (stereo not given)
// result inactive
